Please provide measured pKi for the entries that follow.
target: glucocorticoid receptor (GR) (Homo sapiens, UniProt P04150); construct: endogenous in cells; assay: GR Ligand Binding Assay (3H-dexamethasone displacement, HeLa cell lysate); settings: 3H-DEX trace, DEX as reference, read-out: GR BIND Ki
Answers are plain numbers, as −log10 of the molar value.

Use these answered entries as a reference point.
| COMPOUND | PROPERTY LABEL | RESULT NUMBER |
| --- | --- | --- |
| C[C@]12Cc3cnn(-c4ccc(F)cc4)c3C=C1CC[C@@]2(CO)CC(O)C1CCCCC1 (single isomer, unassigned) [Example 18b] | pKi | 8.64 |
| C[C@]12Cc3cnn(-c4ccc(F)cc4)c3C=C1CC[C@@]2(CO)CC(O)C(F)(F)F (single isomer, unassigned) [Example 28b] | pKi | 8.27 |
| C[C@]12Cc3cnn(-c4ccc(F)cc4)c3C=C1CC[C@@]2(CO)CC(O)c1cc(F)cc(F)c1 (stereo partly shown) | pKi | 8.68 |

Now consider the entry below.
Inquiry: Tell me the measured pKi of C[C@]12Cc3cnn(-c4ccc(F)cc4)c3C=C1CC[C@@]2(CO)CC(O)c1cccc(C(F)(F)F)c1 (single isomer, unassigned) [Example 7a] , please.
Reply text: 9.22

* * *

Biological target: human GR (Homo sapiens)
Construct: naturally expresses the human GR; endogenous in cells
Sequence (P04150 1-777): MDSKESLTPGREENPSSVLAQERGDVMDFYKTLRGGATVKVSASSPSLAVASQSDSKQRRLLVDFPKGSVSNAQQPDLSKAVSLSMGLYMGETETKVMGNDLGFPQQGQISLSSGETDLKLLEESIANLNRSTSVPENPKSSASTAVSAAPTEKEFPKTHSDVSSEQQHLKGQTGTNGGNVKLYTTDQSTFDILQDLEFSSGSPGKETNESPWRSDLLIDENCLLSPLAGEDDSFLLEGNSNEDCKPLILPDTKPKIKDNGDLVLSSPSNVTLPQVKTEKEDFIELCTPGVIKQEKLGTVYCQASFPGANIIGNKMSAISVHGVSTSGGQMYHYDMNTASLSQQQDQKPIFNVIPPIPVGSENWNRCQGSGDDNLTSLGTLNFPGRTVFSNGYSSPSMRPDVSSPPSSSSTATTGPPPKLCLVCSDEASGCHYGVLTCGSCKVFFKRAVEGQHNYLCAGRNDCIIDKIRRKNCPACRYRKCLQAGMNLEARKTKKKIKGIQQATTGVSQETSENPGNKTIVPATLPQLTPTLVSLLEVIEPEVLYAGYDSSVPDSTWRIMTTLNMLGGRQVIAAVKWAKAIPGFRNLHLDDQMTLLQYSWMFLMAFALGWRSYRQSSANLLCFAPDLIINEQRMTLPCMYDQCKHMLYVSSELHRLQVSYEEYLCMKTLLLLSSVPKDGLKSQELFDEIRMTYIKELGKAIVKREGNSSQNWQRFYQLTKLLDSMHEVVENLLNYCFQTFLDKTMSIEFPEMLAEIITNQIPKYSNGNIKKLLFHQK
Experiment: Trans-Activation Modulation of Glucocorticoid Receptor Assay (GRAMMER), MMTV-LUC reporter in A549 cells
Format: cell-based
Settings: inflection point (IP), MMTV-LUC reporter, read-out: Transactivation A549 Cells GRAMMER IP
Define the label as met when EC50 is strictly less than 100 nM and as not met in all remaining cases.

Consider the worked cases shown below.
| COMPOUND | ASSIGNED CATEGORY |
| --- | --- |
| C[C@]12Cc3cnn(-c4ccccc4)c3C=C1CC[C@@]2(CO)CC(O)c1ccccn1 (single isomer, unassigned) [Example 23b] | met |
| COc1cccnc1C(O)C[C@]1(CO)CCC2=Cc3c(cnn3-c3ccc(F)cc3)C[C@@]21C (single isomer, unassigned) [Example 21a] | not met |
| Cc1cccc(C(O)C[C@]2(CO)CCC3=Cc4c(cnn4-c4ccc(F)cc4)C[C@@]32C)c1 (single isomer, unassigned) [Example 5a] | met |
| C[C@]12Cc3cnn(-c4ccccc4)c3C=C1CC[C@@]2(CO)CC(O)c1cccnc1 (single isomer, unassigned) [Example 29b] | not met |

Next, consider the following compound.
Inquiry: Lab note: EC50 threshold 100 nM. Does this compound come in strictly under it? C[C@]12Cc3cnn(-c4ccc(F)cc4)c3C=C1CC[C@@]2(CO)CC(O)c1ccncc1 (single isomer, unassigned) [Example 17b]
Reply text: met

These entries and their values trace back to patent US20120095055A1.
